assay.system: Genome polyprotein (dengue virus type 2, UniProt P29990)
assay.protocol: Dengue-2 NS5 methyltransferase inhibitors, primary screen, biochemical, confirmation dose response (AID 588689)
Type: functional
Active and inactive are the calls of the source.
Can you tell me IC50 for the items I'm about to list?

Past entries and their recorded results:
> print(dat)
                                   compound           observed
1  CN(C)c1ccc(N=Nc2ccc(S(=O)(=O)O)cc2)c2ccccc12   46.2 µM (active)
2  CCCCCC(=O)Nc1cc(S(=O)(=O)O)cc2cc(S(=O)(=O)O)cc(O)c12     30 µM (active)
3  O=[N+]([O-])c1c(Nc2ccc(O)cc2)cc(Cl)c2nonc12   10.4 µM (active)
4  O=C1C(O)=CC(=C(c2ccccc2)c2ccccc2)c2ccccc21  > 100 µM (active)

Please report IC50 for every entry that follows.
1. CCCCCCSc1nc(O)c(C2OC(=O)c3c2ccc(OC)c3OC)c(=O)n1CC (centres undefined)
2. COc1cccc(/C=C2/C(=O)NN(c3ccc(C)c(C)c3)C2=O)c1
3. CCOC(=O)c1ccc(NC2=CC(=O)C(=O)c3ccccc32)cc1
4. N#Cc1c(SC(C(=O)O)c2ccccc2)nc2c(c1-c1cccs1)CCCC2 (centres undefined)
5. CC1=CC(=O)C(Sc2ccc(C)cc2)=CC1=O

1. 56.9 µM (active)
2. > 100 µM (active)
3. > 100 µM (active)
4. 39.2 µM (active)
5. 14.5 µM (active)

* * *

Can you tell me IC50 for the items I'm about to list?
assay.system: Large T antigen (Simian virus 40, UniProt P03070);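 note: Confirmatory-stage PubChem screen for compounds that inhibit SV40 T antigen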
Sequence (P03070 whole entry): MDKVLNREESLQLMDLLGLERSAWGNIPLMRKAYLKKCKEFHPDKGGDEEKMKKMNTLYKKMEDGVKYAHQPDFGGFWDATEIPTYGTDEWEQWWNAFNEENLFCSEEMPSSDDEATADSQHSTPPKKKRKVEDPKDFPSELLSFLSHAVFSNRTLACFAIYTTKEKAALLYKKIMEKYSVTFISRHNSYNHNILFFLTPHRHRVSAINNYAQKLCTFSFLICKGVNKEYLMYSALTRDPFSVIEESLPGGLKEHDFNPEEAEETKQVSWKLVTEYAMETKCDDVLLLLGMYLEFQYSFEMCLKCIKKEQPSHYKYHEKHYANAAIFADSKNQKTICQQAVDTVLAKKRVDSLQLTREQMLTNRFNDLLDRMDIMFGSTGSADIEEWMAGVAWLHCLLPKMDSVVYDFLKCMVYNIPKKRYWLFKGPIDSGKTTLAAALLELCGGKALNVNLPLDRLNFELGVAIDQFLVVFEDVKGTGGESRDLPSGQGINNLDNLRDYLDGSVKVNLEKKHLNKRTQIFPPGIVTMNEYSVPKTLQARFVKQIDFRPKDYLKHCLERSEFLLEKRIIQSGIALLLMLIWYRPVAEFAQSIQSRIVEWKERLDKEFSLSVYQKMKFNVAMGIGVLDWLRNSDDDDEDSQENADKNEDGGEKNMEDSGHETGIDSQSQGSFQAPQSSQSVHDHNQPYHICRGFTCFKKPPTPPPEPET
Type: functional, Betapolyomavirus macacae
The source made the active and inactive calls.

Please report IC50 for every entry that follows.
1. CC(=O)Oc1ccc(C(=O)OCC(=O)c2c(N)n(C)c(=O)n(C)c2=O)cc1OC(C)=O
2. Sc1nnc(-c2[nH]nc3c2CCC3)n1/N=C/C=C/c1ccco1
3. CC1(C)Nc2ccc(O)cc2-c2c1ssc2=S
4. O=C(/C=C/c1cccc(Cl)c1)c1ccc([N+](=O)[O-])o1
5. O=c1oc2ccccc2c2oc3cc(O)c(O)cc3c12
6. COc1cc(/C=N/NC(=O)C(C)n2nnc3ccccc32)ccc1O (configuration not stated)
7. CN(C)c1ccc(NS(=O)(=O)c2ccc(Cl)cc2)cc1
8. OC1=C(/C=N/c2ccc(O)cc2)CCCC1

1. 8.56 µM (active)
2. 18.1 µM (active)
3. > 100 µM (active)
4. 40.9 µM (active)
5. 6.52 µM (active)
6. 19.8 µM (active)
7. 11.7 µM (active)
8. 6.66 µM (active)

* * *

assay.system: Prothrombin (Bos taurus, UniProt P00735)
assay.protocol: thrombin inhibition, dose response, biochemical, fluorescence polarization, uHTS hits (AID 602369)
Type: functional
Active and inactive are the calls of the source.
Your response should consist of one outcome taken from yes = active, no = inactive

A selection of reference data follows.
> print(dat)
                                chem.smiles                              assay.system  assigned.category
1  CC(C)(C)c1nc2ccccc2c2nnc(SCC(=O)Nc3nc4ccccc4s3)n12  Prothrombin (Bos taurus, UniProt P00735)                 no
2                        CCN(CC)c1ccc(N)cc1  Prothrombin (Bos taurus, UniProt P00735)                yes
3  Cn1c(=O)oc2cc(S(=O)(=O)N3CCN(c4ccccc4F)CC3)ccc21  Prothrombin (Bos taurus, UniProt P00735)                yes

Please let me know the test result on file for COc1ccc(NC(=O)c2cccc3c(-c4cccnc4)coc23)cc1 .
no

Please let me know the test result on file for O=C(O)CCCCCN1C(=O)/C(=C/c2cn(-c3ccccc3)nc2-c2cccs2)SC1=S .
yes

Please let me know the test result on file for CCOc1ccc(NC(=O)c2ccc(NC(=O)COC(=O)c3ccc(NC(=O)CC#N)cc3)cc2)cc1 .
yes

* * *

Can you tell me EC50 for the items I'm about to list?
Test system: BJ
assay.protocol: cytotoxicity toward BJ-TERT-LT-ST fibroblasts, dose response, cell-based, RAS-independent, luminescence (AID 1935);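 note: BJ fibroblasts immortalized with TERT plus LT and ST oncogenes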
Assay type: functional
condition.parameters: Homo sapiens
The source made the active and inactive calls.

Past entries and their recorded results:
> print(dat)
                                   compound  parameter.measured                observed
1              O=C(Cc1ccc(Br)cc1)NCc1ccccc1                EC50  45.4 µM (inconclusive)
2  CC1=CC2/C=C(\C)CCC(O)C(O)/C=C/C(=O)C23C(=O)NC(CC(C)C)C3C1C (stereo not given)                EC50   4.8 µM (inconclusive)
3  COc1cc(C(=O)N2CCN(c3ccc(C)cc3C)CC2)cc(OC)c1OC                EC50  21.8 µM (inconclusive)
4  Nc1nc(F)nc2c1ncn2[C@@H]1O[C@H](CO)[C@@H](O)[C@H]1O                EC50        0.46 µM (active)

From here, focus on the item given below.
If you can, please state the reported EC50 value of OC(CNCCC1C=Nc2ccccc21)Cn1c2ccc(Cl)cc2c2cc(Cl)ccc21 (stereo not given) .
5.42 µM (inconclusive)

* * *

Can you tell me AC50 for the items I'm about to list?
assay.system: Heat shock protein HSP 90-alpha (Homo sapiens, UniProt P07900)
Format: functional, organism-based
Calls of active or inactive are those of the source.

Past entries and their recorded results:
> print(dat)
                                   compound          observed
1  CC(C)CC(=O)NC(c1cccs1)c1ccc2cccnc2c1O (centres undefined)  3.78 µM (active)
2                   Oc1cc(Cl)c(Cl)c(Cl)c1Cl  2.06 µM (active)
3      O=C(Nc1nnc(SCc2ccc(F)cc2)s1)c1ccccn1  3.56 µM (active)
4  OC(CNCCC1C=Nc2ccccc21)Cn1c2ccc(Cl)cc2c2cc(Cl)ccc21 (centres undefined)  8.15 µM (active)
5  O=C(/C=C/c1cccc(Cl)c1)c1ccc([N+](=O)[O-])o1  1.28 µM (active)

Please report AC50 for every entry that follows.
1. O=c1c(Br)ccc(Br)cc1Br
2. Clc1ccc(CCC(Cn2ccnc2)Sc2c(Cl)cccc2Cl)cc1 (centres undefined) [BUTOCONAZOLE NITRATE]
3. CCC(=O)NC(c1ccc(Cl)cc1Cl)c1ccc2cccnc2c1O (centres undefined)
4. CCCCCCCCCCCCCCCC[N+](C)(C)C

1: 0.438 µM (active); 2: < 0.195 µM (active); 3: 3.22 µM (active); 4: 8.33 µM (active)

* * *

Can you tell me EC50 for the items I'm about to list?
assay.protocol: growth suppression of PTEN-null colon cells, dose response, cell-based, HCT116 PTEN knockout (AID 1047);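 note: HCT116 colon tumor cells with PTEN knocked out; cells exposed to compound for 60 hours before readout; potency for loss of cell viability measured by luminescence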
Assay type: functional
Activity calls are given as the source filed them.

Past entries and their recorded results:
> print(dat)
                                   compound          observed
1  OC(CNCCC1C=Nc2ccccc21)Cn1c2ccc(Cl)cc2c2cc(Cl)ccc21 (stereo not given)  2.73 µM (active)
2  CCOC(=O)c1ccc(NC2=CC(=O)C(=O)c3ccccc32)cc1  15.5 µM (active)
3  COc1cc(C(=O)N2CCN(c3ccc(C)cc3C)CC2)cc(OC)c1OC  2.65 µM (active)
4  Cc1ccc(C23CC4CC(CC(NC(=O)NCCN(C)C)(C4)C2)C3)cc1  20.9 µM (active)

If you can, please state the reported EC50 value of CCc1nc(Nc2ccncc2)c2oc3ccccc3c2n1 .
6.58 µM (active)

* * *

assay.system: Polyadenylate-binding protein 1 (Homo sapiens, UniProt P11940)
Sequence (P11940 whole entry): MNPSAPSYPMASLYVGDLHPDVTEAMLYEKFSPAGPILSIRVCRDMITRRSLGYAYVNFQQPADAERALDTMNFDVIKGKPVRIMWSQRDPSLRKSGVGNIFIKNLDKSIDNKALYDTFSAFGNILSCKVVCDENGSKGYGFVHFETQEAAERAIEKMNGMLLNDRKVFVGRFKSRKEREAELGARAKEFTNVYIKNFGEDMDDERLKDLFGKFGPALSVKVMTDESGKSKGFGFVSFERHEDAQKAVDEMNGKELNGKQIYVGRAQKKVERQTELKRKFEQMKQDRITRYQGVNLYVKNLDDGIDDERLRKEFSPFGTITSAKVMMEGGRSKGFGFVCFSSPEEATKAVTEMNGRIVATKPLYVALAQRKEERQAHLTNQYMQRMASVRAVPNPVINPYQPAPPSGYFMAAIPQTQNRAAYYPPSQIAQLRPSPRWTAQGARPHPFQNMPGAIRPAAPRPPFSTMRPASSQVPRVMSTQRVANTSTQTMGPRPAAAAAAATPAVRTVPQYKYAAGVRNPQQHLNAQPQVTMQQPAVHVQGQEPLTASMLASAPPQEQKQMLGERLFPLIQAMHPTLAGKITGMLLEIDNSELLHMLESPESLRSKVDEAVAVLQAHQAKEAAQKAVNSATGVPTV
assay.protocol: PABP1 MLLE–PAM2 binding inhibitor potency, dose response, biochemical, fluorescence polarization, FITC-PAM2 peptide (AID 602259)
Type: functional
condition.parameters: read-out: IC50_Mean
Active and inactive are the calls of the source.
parameter.measured: IC50

Past entries and their recorded results:
> print(dat)
                                   compound            observed
1                Cn1nc(C(=O)O)c(=O)n(C)c1=O  > 66 µM (inactive)
2  O=S(=O)(Oc1ccccc1C(=S)N1CCOCC1)c1ccc(Cl)cc1  > 66 µM (inactive)
3  Cc1ccc(-n2ccnc(SCC(=O)NC3CCCCC3)c2=O)cc1F  > 66 µM (inactive)

Please report IC50 for every entry that follows.
1. Cc1ccc(C(=O)Nc2nc3ccccc3c(=O)s2)cc1
2. Cc1nc(NC(=S)NC(=O)c2ccco2)sc1C(=O)N(C)C
3. O=C(NC(=S)NCCO)c1cn(-c2ccccc2)nc1-c1ccccc1
4. COc1ccc(N=C(S)NC(NC(=O)c2ccc(Cl)cc2Cl)C(Cl)(Cl)Cl)c([N+](=O)[O-])c1 (stereo unspecified)
5. CC1=CC(=O)C(Sc2ccc(C)cc2)=CC1=O

> 66 µM (inactive)
> 66 µM (inactive)
> 66 µM (inactive)
> 66 µM (inactive)
> 66 µM (inactive)
